Entry source: patent US20030170222A1

# assayed system: Melanocortin MC5 (human recombinant, HEK-293 cells) (human), P33032
# Sequence (P33032 whole entry): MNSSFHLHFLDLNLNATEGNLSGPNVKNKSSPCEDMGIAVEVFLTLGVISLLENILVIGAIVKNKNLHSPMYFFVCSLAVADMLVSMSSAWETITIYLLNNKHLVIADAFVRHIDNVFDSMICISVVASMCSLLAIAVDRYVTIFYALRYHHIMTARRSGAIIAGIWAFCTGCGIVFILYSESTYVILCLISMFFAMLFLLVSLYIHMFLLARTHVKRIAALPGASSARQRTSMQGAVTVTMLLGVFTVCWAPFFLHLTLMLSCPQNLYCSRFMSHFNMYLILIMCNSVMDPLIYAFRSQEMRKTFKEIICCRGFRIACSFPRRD
recorded endpoint: pIC50
Please express pIC50 as -log10 of the molar concentration.

Give the measured pIC50 for SLWCVCPFRVCPPCH (modifications not checked) [β-Ge14.1-D1]
6.53
